- Tested on: Rattus norvegicus
- method.notes: Blood pressure of the urethane-anesthetized normotensive Wistar rat was tested 30 min after inducing the compound on dose of 1.0 mg/kg
- Type: functional
With a cut-off of 0.1 mmHg, any BP strictly below it is called T; any BP meeting it or above is called F.

Solved entries (count: 5):
CC(C)NCC(O)COc1cccc2ccccc12 (stereo unspecified) [PROPRANOLOL] | T
CCCCCCCCC(=O)NCc1ccc(OCC(O)CNCC)c(OC)c1 (stereo unspecified) | T
CCCCCCCCC(=O)NCc1ccc(OCC(O)CNC(C)CC)c(OC)c1 (stereo unspecified) | T
CCCCCCCCC(=O)NCc1ccc(OCC(O)CNCC(C)C)c(OC)c1 (stereo unspecified) | F
CCCCCCCCC(=O)NCc1ccc(OCC(O)CNCCCC)c(OC)c1 (stereo unspecified) | F

Please look at the following compound next.
q: hey, is BP for CCCCCCCCC(=O)NCc1ccc(OCC(O)CNC)c(OC)c1 (stereo unspecified) lower than 0.1 mmHg or not?
a: F
